Here, each record is paired with measured pIC50 data.
# Protocol Text: Inhibition of STK2 by scintillation proximity assay
pIC50: −log10 of the molar value.

• CC(C)(C)C(=O)N1Cc2c(NC(=O)c3cc(F)cc(F)c3)n[nH]c2C1(C)C = < 5.00

Consider the additional compound presented here.
So what's the measured pIC50 for this one? "CC(C)CC(=O)Nc1n[nH]c2c1CN(C(=O)C1CCN(C)CC1)C2(C)C"
< 5.00

###

# Assay System: CYP3A4 (Homo sapiens)
# Sequence (P08684 whole entry): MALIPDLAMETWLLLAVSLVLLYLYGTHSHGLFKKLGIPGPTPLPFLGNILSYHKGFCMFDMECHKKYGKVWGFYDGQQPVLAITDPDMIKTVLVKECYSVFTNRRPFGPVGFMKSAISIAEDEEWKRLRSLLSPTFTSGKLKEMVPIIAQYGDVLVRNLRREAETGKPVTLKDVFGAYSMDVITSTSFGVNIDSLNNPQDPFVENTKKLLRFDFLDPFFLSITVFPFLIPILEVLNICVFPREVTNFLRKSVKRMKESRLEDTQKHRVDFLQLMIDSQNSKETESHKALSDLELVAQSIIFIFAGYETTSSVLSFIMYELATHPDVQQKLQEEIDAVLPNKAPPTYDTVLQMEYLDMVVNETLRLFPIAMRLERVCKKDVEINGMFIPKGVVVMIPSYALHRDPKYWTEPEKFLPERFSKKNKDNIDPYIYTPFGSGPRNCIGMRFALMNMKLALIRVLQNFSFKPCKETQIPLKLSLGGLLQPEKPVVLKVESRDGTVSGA
# Protocol Text: Inhibition of human CYP3A4 assessed as residual activity at 10 uM
# Assay type: ADME
# Measurement Parameters: read-out: Activity
Assay Metric: activity at 10 µM (%)
Give your result in % as a bare value.

CYP3A4 (Homo sapiens) / activity at 10 µM / "CC(C)CC(=O)Nc1[nH]nc2c1CN(C(=O)C1CCN(C)CC1)C2(C)C" : value?
91

###

# Assay System: Receptor-type tyrosine-protein kinase FLT3 (Homo sapiens, UniProt P36888)
# Sequence (P36888 whole entry): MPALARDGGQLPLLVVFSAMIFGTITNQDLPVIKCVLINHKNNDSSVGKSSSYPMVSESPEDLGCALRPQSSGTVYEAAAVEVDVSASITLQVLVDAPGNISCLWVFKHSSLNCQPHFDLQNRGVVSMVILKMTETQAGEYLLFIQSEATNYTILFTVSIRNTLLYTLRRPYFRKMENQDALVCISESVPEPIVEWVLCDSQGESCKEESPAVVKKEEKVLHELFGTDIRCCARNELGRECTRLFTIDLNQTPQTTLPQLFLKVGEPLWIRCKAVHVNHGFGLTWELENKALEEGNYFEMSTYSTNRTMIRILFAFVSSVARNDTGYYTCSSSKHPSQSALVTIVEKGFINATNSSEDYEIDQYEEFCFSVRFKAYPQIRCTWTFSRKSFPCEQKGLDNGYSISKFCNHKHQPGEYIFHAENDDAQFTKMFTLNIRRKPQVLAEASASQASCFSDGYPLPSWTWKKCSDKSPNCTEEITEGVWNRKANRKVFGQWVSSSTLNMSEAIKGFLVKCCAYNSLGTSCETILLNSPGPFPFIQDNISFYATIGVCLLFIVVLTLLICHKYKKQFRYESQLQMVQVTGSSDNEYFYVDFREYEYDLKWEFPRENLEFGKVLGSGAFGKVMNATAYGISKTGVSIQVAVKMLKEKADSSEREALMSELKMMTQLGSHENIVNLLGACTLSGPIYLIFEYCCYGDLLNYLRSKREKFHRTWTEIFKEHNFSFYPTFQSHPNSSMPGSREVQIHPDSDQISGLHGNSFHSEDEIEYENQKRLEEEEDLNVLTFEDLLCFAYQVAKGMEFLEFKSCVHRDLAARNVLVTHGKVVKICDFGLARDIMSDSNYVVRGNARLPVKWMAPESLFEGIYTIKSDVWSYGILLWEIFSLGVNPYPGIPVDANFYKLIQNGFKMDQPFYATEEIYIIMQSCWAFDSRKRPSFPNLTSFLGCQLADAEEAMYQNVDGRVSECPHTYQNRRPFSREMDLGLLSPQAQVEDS
Assay Metric: IC50

So what's the measured IC50 for this one? "CC(C)CC(=O)Nc1[nH]nc2c1CN(C(=O)C1CCN(C)CC1)C2(C)C"
> 10 µM

###

# Protocol Text: Solubility at pH 7
# Format: physicochemical
# Measurement Parameters: buffer
Assay Metric: solubility (µM)
Give your result in µM as a bare value.

- OC[C@H]1O[C@H](OC[C@H]2O[C@@H](O[C@]3(CO)O[C@H](CO)[C@@H](O)[C@@H]3O)[C@H](O)[C@@H](O)[C@@H]2O)[C@H](O)[C@@H](O)[C@H]1O.OC[C@H]1O[C@H](OC[C@H]2O[C@H](O[C@]3(CO)O[C@H](CO)[C@@H](O)[C@@H]3O)[C@H](O)[C@@H](O)[C@@H]2O)[C@H](O)[C@@H](O)[C@H]1O: 200
- CC(C)(C)C(=O)N1Cc2c(NC(=O)c3cccnc3)n[nH]c2C1(C)C: 207
- CC(C)(C)C(=O)N1Cc2c(NC(=O)c3ccc(F)cc3)n[nH]c2C1(C)C: 235
- CC(C)(C)C(=O)N1Cc2c(NC(=O)c3ccncc3)n[nH]c2C1(C)C: 205
- CC(=O)N1CCC(C(=O)N2Cc3c(NC(=O)c4ccc(F)cc4)n[nH]c3C2(C)C)CC1: 204

So what's the measured solubility for this one? "CC(C)(C)C(=O)N1Cc2c(NC(=O)c3cc(F)cc(F)c3)n[nH]c2C1(C)C"
186

So what's the measured solubility for this one? "CC1(C)c2[nH]nc(NC(=O)c3ccc(F)cc3)c2CN1C(=O)N1CCN(c2ccccc2)CC1"
55

So what's the measured solubility for this one? "CC1(C)c2[nH]nc(NC(=O)c3ccc(F)cc3)c2CN1C(=O)C1CCNCC1"
204

###

# Assay System: ALK tyrosine kinase receptor (Homo sapiens)
# Sequence (Q9UM73 whole entry): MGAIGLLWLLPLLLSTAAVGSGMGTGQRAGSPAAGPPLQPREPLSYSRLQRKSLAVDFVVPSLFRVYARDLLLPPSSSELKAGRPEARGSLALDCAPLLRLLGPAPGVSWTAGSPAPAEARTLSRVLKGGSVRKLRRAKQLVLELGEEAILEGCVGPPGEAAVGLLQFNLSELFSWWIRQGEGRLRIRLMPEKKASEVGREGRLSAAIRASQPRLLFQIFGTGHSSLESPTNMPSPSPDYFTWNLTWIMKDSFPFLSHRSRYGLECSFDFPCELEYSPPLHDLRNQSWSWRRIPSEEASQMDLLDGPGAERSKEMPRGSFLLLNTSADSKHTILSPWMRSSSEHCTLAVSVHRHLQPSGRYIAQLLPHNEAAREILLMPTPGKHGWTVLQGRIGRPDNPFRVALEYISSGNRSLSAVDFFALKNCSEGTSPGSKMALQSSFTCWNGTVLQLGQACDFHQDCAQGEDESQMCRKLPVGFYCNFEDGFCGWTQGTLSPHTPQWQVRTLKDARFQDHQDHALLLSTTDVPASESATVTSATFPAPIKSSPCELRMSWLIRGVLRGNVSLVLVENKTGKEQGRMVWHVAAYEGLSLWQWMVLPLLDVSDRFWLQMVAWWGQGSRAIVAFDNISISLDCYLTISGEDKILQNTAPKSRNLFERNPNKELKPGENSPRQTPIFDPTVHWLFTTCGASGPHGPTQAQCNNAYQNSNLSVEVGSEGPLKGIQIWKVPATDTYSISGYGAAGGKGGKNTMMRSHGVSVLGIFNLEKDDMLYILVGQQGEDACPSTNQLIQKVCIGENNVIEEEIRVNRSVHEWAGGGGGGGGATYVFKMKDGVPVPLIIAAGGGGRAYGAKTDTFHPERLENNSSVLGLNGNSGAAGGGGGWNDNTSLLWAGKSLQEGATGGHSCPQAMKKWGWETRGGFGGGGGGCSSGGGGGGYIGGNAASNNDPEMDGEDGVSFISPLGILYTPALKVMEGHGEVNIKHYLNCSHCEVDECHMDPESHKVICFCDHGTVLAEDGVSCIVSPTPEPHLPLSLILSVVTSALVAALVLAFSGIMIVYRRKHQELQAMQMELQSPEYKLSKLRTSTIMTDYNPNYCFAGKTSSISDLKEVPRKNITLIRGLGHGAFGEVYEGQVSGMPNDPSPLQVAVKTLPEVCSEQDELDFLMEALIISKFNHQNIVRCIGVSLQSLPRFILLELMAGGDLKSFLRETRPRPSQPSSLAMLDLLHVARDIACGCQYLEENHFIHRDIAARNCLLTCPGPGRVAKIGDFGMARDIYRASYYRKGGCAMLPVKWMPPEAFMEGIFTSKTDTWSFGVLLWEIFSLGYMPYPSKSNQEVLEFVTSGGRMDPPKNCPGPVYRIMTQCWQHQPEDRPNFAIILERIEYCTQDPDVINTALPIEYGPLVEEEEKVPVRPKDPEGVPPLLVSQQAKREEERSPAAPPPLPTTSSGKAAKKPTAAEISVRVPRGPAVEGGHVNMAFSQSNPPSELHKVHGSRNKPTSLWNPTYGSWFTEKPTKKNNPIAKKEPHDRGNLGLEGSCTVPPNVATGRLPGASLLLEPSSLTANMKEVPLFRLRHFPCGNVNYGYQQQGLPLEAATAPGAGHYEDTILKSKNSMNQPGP
Assay Metric: IC50

So what's the measured IC50 for this one? "CC(C)(C)C(=O)N1Cc2c(NC(=O)c3cc(F)cc(F)c3)n[nH]c2C1(C)C"
> 10 µM

###

# Protocol Text: Solubility in 5% dextrose solution
# Type: physicochemical
Assay Metric: solubility (µg/mL)
Give your result in µg/mL as a bare value.

• CC(C)(C)C(=O)N1Cc2c(NC(=O)c3cc(F)cc(F)c3)n[nH]c2C1(C)C = 3400

Consider the additional compound presented here.
So what's the measured solubility for this one? "CC(C)CC(=O)Nc1[nH]nc2c1CN(C(=O)C1CCN(C)CC1)C2(C)C"
10000

###

# Assay System: Glycogen synthase kinase-3 beta (Homo sapiens)
# Sequence (P49841 whole entry): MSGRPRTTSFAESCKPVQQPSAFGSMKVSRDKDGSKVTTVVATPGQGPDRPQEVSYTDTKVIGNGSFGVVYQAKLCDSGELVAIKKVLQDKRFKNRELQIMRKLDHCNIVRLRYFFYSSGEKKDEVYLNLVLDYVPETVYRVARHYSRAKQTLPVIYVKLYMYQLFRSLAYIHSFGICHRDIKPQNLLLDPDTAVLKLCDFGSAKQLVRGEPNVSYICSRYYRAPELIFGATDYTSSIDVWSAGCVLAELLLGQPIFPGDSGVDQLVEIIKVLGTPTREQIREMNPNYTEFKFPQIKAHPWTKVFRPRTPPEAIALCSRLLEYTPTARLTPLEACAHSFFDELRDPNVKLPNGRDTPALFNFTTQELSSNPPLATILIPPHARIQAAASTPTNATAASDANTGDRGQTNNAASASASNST
Assay Metric: IC50

Glycogen synthase kinase-3 beta (Homo sapiens) / IC50 / CC(C)CC(=O)Nc1[nH]nc2c1CN(C(=O)C1CCN(C)CC1)C2(C)C [PHA-793887] : value?
0.079 µM

###

# Test system: BXPC-3
# Protocol Text: Antiproliferative activity against human BxPC3 cells after 72 hrs by SRB assay
# Format: functional, cell-based
# Measurement Parameters: BXPC-3, 72 h
Assay Metric: IC50 (µM)
Give your result in µM as a bare value.

So what's the measured IC50 for this one? "CC(C)CC(=O)Nc1n[nH]c2c1CN(C(=O)C1CCN(C)CC1)C2(C)C"
3.44

###

# Assay System: Cyclin-dependent kinase 2/cyclin A (Homo sapiens)
# Protocol Text: Inhibition of human CDK2/cyclin A expressed in Escherichia coli BL21 by scintillation proximity assay
Assay Metric: pIC50
Note: pIC50 values are expressed as the negative base-10 logarithm of concentration in M.

See these solved cases before continuing.
- CC(C)(C)C(=O)N1Cc2c(NC(=O)c3ccncc3)n[nH]c2C1(C)C: 7.31
- CC(C)(C)C(=O)N1Cc2c(NC(=O)c3cc(F)cc(F)c3)n[nH]c2C1(C)C: 7.22
- CC1(C)c2[nH]nc(NC(=O)c3ccc(F)cc3)c2CN1C(=O)N1CCN(c2ccccc2)CC1: 5.46
- CN1CCC(C(=O)N2Cc3c(NC(=O)c4cc(F)cc(F)c4)n[nH]c3C2(C)C)CC1: 7.80
- CN1CCC(C(=O)N2Cc3c(NC(=O)C4CCC4)n[nH]c3C2(C)C)CC1: 8.05
- CC1(C)c2[nH]nc(NC(=O)c3ccc(F)cc3)c2CN1C(=O)C1CCN(C2CC2)CC1: 7.17
- CC(=O)N1CCN(C(=O)N2Cc3c(NC(=O)c4ccc(F)cc4)n[nH]c3C2(C)C)CC1: 6.27
- CN1CCC(C(=O)N2Cc3c(NC(=O)NCc4ccccc4)n[nH]c3C2(C)C)CC1: 7.68

Cyclin-dependent kinase 2/cyclin A (Homo sapiens) / pIC50 / "CN1CCC(C(=O)N2Cc3c(NC(=O)c4ccc(Cl)cc4)n[nH]c3C2(C)C)CC1" : value?
7.82

Cyclin-dependent kinase 2/cyclin A (Homo sapiens) / pIC50 / "CN1CCC(C(=O)N2Cc3c(NC(=O)Nc4cccc(F)c4)n[nH]c3C2(C)C)CC1" : value?
8.00

Cyclin-dependent kinase 2/cyclin A (Homo sapiens) / pIC50 / "CN1CCC(C(=O)Nc2n[nH]c3c2CN(C(=O)C(C)(C)C)C3(C)C)CC1" : value?
6.67

###

# Assay System: Cyclin-dependent kinase 2/cyclin A (Homo sapiens, UniProt P24941)
# Protocol Text: Inhibition of human CDK2/cyclin A expressed in Escherichia coli BL21 by scintillation proximity assay
Here, each record is paired with measured pIC50 data.
Note: pIC50 values are expressed as the negative base-10 logarithm of concentration in M.

• CCN1CCC(C(=O)N2Cc3c(NC(=O)CC(C)C)n[nH]c3C2(C)C)CC1 = 7.85

Consider the additional compound presented here.
So what's the measured pIC50 for this one? "CN1CCC(C(=O)N2Cc3c(NC(=O)c4ccsc4)n[nH]c3C2(C)C)CC1"
8.30

###

# Assay System: Cyclin-dependent kinase 2/cyclin A (Homo sapiens, UniProt P24941)
# Protocol Text: Inhibition of human CDK2/cyclin A expressed in Escherichia coli BL21 by scintillation proximity assay
Assay Metric: IC50 (nM)
Give your result in nM as a bare value.

So what's the measured IC50 for this one? "CN(C)CC(=O)Nc1n[nH]c2c1CN(C(=O)C(C)(C)C)C2(C)C"
77

So what's the measured IC50 for this one? "CN1CCC(C(=O)N2Cc3c(NC(=O)C4CC4)n[nH]c3C2(C)C)CC1"
15

So what's the measured IC50 for this one? "OC[C@H]1O[C@H](OC[C@H]2O[C@@H](O[C@]3(CO)O[C@H](CO)[C@@H](O)[C@@H]3O)[C@H](O)[C@@H](O)[C@@H]2O)[C@H](O)[C@@H](O)[C@H]1O.OC[C@H]1O[C@H](OC[C@H]2O[C@H](O[C@]3(CO)O[C@H](CO)[C@@H](O)[C@@H]3O)[C@H](O)[C@@H](O)[C@@H]2O)[C@H](O)[C@@H](O)[C@H]1O"
16

So what's the measured IC50 for this one? "CC(C)(C)C(=O)N1Cc2c(NC(=O)c3cccnc3)n[nH]c2C1(C)C"
50

So what's the measured IC50 for this one? "CCCNC(=O)Nc1n[nH]c2c1CN(C(=O)C1CCN(C)CC1)C2(C)C"
11

So what's the measured IC50 for this one? "CC(C)CC(=O)Nc1n[nH]c2c1CN(C(=O)C1CCN(C3CC3)CC1)C2(C)C"
24

So what's the measured IC50 for this one? "CC1(C)c2[nH]nc(NC(=O)c3ccc(F)cc3)c2CN1C(=O)C1CCNCC1"
30

So what's the measured IC50 for this one? "CN1CCC(C(=O)N2Cc3c(NC(=O)c4ccc(F)c(F)c4)n[nH]c3C2(C)C)CC1"
14

So what's the measured IC50 for this one? "CN1CCC(C(=O)N2Cc3c(NC(=O)c4ccccc4)n[nH]c3C2(C)C)CC1"
23

So what's the measured IC50 for this one? "CN1CCN(C(=O)N2Cc3c(NC(=O)c4ccc(F)cc4)n[nH]c3C2(C)C)CC1"
46

So what's the measured IC50 for this one? "CN1CCC(C(=O)N2Cc3c(NC(=O)c4ccc5ccccc5c4)n[nH]c3C2(C)C)CC1"
27

So what's the measured IC50 for this one? "CN1CCC(C(=O)N2Cc3c(NC(=O)c4cccc(F)c4)n[nH]c3C2(C)C)CC1"
14
